Target: T1, corticotropin releasing factor 2 receptor
T1 sequence (Q13324 whole entry, species assumed, looked up): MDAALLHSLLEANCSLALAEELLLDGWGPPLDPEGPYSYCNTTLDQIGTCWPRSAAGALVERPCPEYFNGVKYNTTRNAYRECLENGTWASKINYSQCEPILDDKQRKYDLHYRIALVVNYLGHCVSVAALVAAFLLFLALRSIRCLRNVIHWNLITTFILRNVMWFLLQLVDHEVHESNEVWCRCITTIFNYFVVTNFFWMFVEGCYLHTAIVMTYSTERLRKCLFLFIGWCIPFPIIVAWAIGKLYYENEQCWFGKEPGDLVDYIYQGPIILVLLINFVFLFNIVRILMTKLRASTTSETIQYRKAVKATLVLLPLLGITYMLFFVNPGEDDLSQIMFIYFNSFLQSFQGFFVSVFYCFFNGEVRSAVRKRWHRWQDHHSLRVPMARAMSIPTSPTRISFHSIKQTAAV
Experiment: cell-based or functional assay
Ends that are not written are not given here.
Kindly apply the following: yes (1) if CRF2R EC50 is less than 5 nM, no (0) in every other case.

Answered examples (4):
1) IVLSLDVPIGLLQEVLEMARAEQLAQQAHSNRKLMEII-NH2 [SEQ ID NO 165]    no (0)
2) ZGPPISIDLPFYLLRKMIEIEKQEKEKQQATTNARILARV (C-terminal amide) [SEQ ID NO 147]    no (0)
3) ZGPPISIDLPAHLLRKMIEIEKQEKEKQQAANNRLLLDTI (C-terminal amide) [SEQ ID NO 206]    no (0)
4) ZGPPISIDVPFQLLRKMIEIEKQEKEKQQATTNARILARV (C-terminal amide) [SEQ ID NO 172]    no (0)

Would you kindly look at the next entry?
IN: Lab note: confirm whether the reported CRF2R EC50 for this binder is below 5 nM, equality not counting. binder: IVLSLDVPIGLLQILLEQARAEAAREQATTNARILARV-NH2 [SEQ ID NO 122]
OUT: yes (1)
